Record form. Attribute: viability, T/C. Fill in for each entry.
# Test system: 945468-187-T-J3-PDC spheroids with HUVEC/MSC, viability;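 note: spheroids exposed to agents for 7 days before viability read; 100% = DMSO vehicle control viability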
# Assay details: Anticancer human tumor 945468-187-T-J3-PDC patient-derived rectal carcinoma cell line growth inhibition [PI3K]
# Experimental conditions: second compound 3.16 µM; first compound 3.16 µM; hits give low values
Kindly answer with a numeric value in %, unit omitted.

The compound listed as CNC(=O)c1ccc(N2C(=S)N(c3ccc(C#N)c(C(F)(F)F)c3)C(=O)C2(C)C)cc1F + Cc1nc(NC(=O)N2CCCC2C(N)=O)sc1-c1ccnc(C(C)(C)C(F)(F)F)c1 shows viability, T/C equal to 108

Looking up CC(C)NCC(C(=O)N1CCN(c2ncnc3c2C(C)CC3O)CC1)c1ccc(Cl)cc1 (stereo not given) + Cc1nc(NC(=O)N2CCCC2C(N)=O)sc1-c1ccnc(C(C)(C)C(F)(F)F)c1 , I see its viability, T/C listed as 38.9

Briefly, viability, T/C measured for C[C@@H](NC(=O)c1ncnc(N)c1Cl)c1ncc(C(=O)Nc2cc(C(F)(F)F)c(Cl)cn2)s1 + Cc1nc(NC(=O)N2CCCC2C(N)=O)sc1-c1ccnc(C(C)(C)C(F)(F)F)c1 : 99

response.value for Cn1ncc(Cl)c1-c1cc(C(=O)NC(CN)Cc2cccc(F)c2)sc1Cl (stereo not given) + CC(Nc1ncnc2nc[nH]c12)c1cc2cccc(Cl)c2c(=O)n1-c1ccccc1 (field: viability, T/C) = 40.7

Sample C#Cc1c(F)ccc2cc(O)cc(-c3ncc4c(N5CC6CCC(C5)N6)nc(OCC56CCCN5CC(F)C6)nc4c3F)c12 (stereo not given) + Cc1nc(NC(=O)N2CCCC2C(N)=O)sc1-c1ccnc(C(C)(C)C(F)(F)F)c1 ; viability, T/C observed: 80.9
